- method: Cytotoxicity test, AlamarBlue
- run_conditions: human, HPB-ALL cells
property: IC50 at 72 h (µM)

{"compound_structure_string": "COc1c(O)cc2oc3cc(O)c(CC=C(C)C)c(O)c3c(=O)c2c1C/C=C(\\C)CCC=C(C)C", "readout_number": 7.5}

====

- method: Cytotoxicity test, FMCA
- Type: cell-based, human
- run_conditions: human, HEK293 cells, FMCA, read-out: IC50 cytotoxicity 293

{"molecule": "COc1c(O)cc2oc3cc(O)c(CC=C(C)C)c(O)c3c(=O)c2c1C/C=C(\\C)CCC=C(C)C [Compound 2, cowanin]", "unit_spec": "µM", "IC50 at 72 h": 15.1}

====

- Tested on: HPB-ALL cells
- method: Cytotoxicity test, AlamarBlue
- Method: HPB-ALL cells (1 × 10^4 cells per well) were incubated in 96-well black plates at 37 °C for 72 h. Media also contained different concentrations of compound. After incubation, AlamarBlue was added 10 μL per well. After incubation for 4 h, using a fluorescence plate reader, fluorescence was measured and cell viability was determined. […] The effect on protein expression was analyzed by Western blotting. β-Actin was used as internal control. […] P values were analyzed by Student’s t test. […]

{"molecule": "C[C@H](NC(=O)Cc1cc(F)cc(F)c1)C(=O)N[C@H](C(=O)OC(C)(C)C)c1ccccc1 [DAPT, reference compound]", "IC50": "> 20 µM"}
